- TARGET OR SYSTEM: T1, ParB 65-139 (RHH domain) (Leifsonia xyli subsp. cynodontis …, UniProt Q6EEF9 65-139)
- T1 sequence: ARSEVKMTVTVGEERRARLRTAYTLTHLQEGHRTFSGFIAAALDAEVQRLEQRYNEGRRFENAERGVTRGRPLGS
- ASSAY OVERVIEW: ITC
What log10 Kd was measured for each of the following?
Remember, log10 of Kd, in µM.

Inquiry: log10 Kd lookup needed for R4-16 (dsDNA) DNA 1: GAAAAGCCAGAAACAG DNA 2: CTGTTTCTGGCTTTTC , thanks.
Reply text: -0.28

Inquiry: Would you mind telling me what log10 Kd value was observed for R3-18-16T (dsDNA) DNA 1: GGAATAGGTGGAAAATCC DNA 2: GGATTTTCCACCTATTCC ?
Reply text: -1.80

Inquiry: Would you mind telling me what log10 Kd value was observed for R3-18-12C (dsDNA) DNA 1: GGAATAGGTGGCAAAGCC DNA 2: GGCTTTGCCACCTATTCC ?
Reply text: -1.24

Inquiry: # log10 Kd lookup, item R3-18-7A (dsDNA) DNA 1: GGAATAAGTGGAAAAGCC DNA 2: GGCTTTTCCACTTATTCC
Reply text: -1.82

Inquiry: Request the reported log10 Kd associated with R3-18-9G (dsDNA) DNA 1: GGAATAGGGGGAAAAGCC DNA 2: GGCTTTTCCCCCTATTCC
Reply text: -0.44

Inquiry: Item R3-18-8T (dsDNA) DNA 1: GGAATAGTTGGAAAAGCC DNA 2: GGCTTTTCCAACTATTCC has what recorded log10 Kd?
Reply text: -1.77

Inquiry: Bench note: what log10 Kd did R3-18-13C (dsDNA) DNA 1: GGAATAGGTGGACAAGCC DNA 2: GGCTTGTCCACCTATTCC show?
Reply text: -1.34

Inquiry: Value lookup for log10 Kd; key = R3-18-13G (dsDNA) DNA 1: GGAATAGGTGGAGAAGCC DNA 2: GGCTTCTCCACCTATTCC
Reply text: -1.19

Inquiry: Dear colleague, I am looking for the recorded log10 Kd of the following binder: R4-20 (dsDNA) DNA 1: TGGAAAAGCCAGAAACAGTG DNA 2: CACTGTTTCTGGCTTTTCCA
Reply text: -1.17

Inquiry: Can you look up the measured log10 Kd of R3-18-17G (dsDNA) DNA 1: GGAATAGGTGGAAAAGGC DNA 2: GCCTTTTCCACCTATTCC for me?
Reply text: -1.46

Inquiry: Record request: log10 Kd value, item R3-18-18T (dsDNA) DNA 1: GGAATAGGTGGAAAAGCT DNA 2: AGCTTTTCCACCTATTCC
Reply text: -1.49

Inquiry: Which log10 Kd reading was recorded for the binder R3-18-16C (dsDNA) DNA 1: GGAATAGGTGGAAAACCC DNA 2: GGGTTTTCCACCTATTCC ?
Reply text: -1.70

Inquiry: Would you kindly share the measured log10 Kd for R3-18-4T (dsDNA) DNA 1: GGATTAGGTGGAAAAGCC DNA 2: GGCTTTTCCACCTAATCC ?
Reply text: -1.48

Inquiry: Query: log10 Kd; subject: R3-18-17T (dsDNA) DNA 1: GGAATAGGTGGAAAAGTC DNA 2: GACTTTTCCACCTATTCC
Reply text: -1.52

Inquiry: Would you kindly share the measured log10 Kd for R3-18-5A (dsDNA) DNA 1: GGAAAAGGTGGAAAAGCC DNA 2: GGCTTTTCCACCTTTTCC ?
Reply text: -1.57

Inquiry: What value of log10 Kd has been recorded for this entry: R3-18-11A (dsDNA) DNA 1: GGAATAGGTGAAAAAGCC DNA 2: GGCTTTTTCACCTATTCC
Reply text: -1.36

Inquiry: I have this binder here, R3-18-11C (dsDNA) DNA 1: GGAATAGGTGCAAAAGCC DNA 2: GGCTTTTGCACCTATTCC , and I need its recorded log10 Kd.
Reply text: -1.25

Inquiry: What measured log10 Kd goes with R3-18-1T (dsDNA) DNA 1: TGAATAGGTGGAAAAGCC DNA 2: GGCTTTTCCACCTATTCA ?
Reply text: -1.17

Inquiry: Quick one: log10 Kd for R3-18-2C (dsDNA) DNA 1: GCAATAGGTGGAAAAGCC DNA 2: GGCTTTTCCACCTATTGC ?
Reply text: -0.72

Inquiry: Given the entry R3-18-6G (dsDNA) DNA 1: GGAATGGGTGGAAAAGCC DNA 2: GGCTTTTCCACCCATTCC , report its measured log10 Kd.
Reply text: -0.68

Inquiry: Return reported log10 Kd; argument: R3-18-3C (dsDNA) DNA 1: GGCATAGGTGGAAAAGCC DNA 2: GGCTTTTCCACCTATGCC
Reply text: -1.05

Inquiry: Recorded log10 Kd of R3-18-14G (dsDNA) DNA 1: GGAATAGGTGGAAGAGCC DNA 2: GGCTCTTCCACCTATTCC , please.
Reply text: -1.38

Inquiry: Quick one: log10 Kd for R3-18-15C (dsDNA) DNA 1: GGAATAGGTGGAAACGCC DNA 2: GGCGTTTCCACCTATTCC ?
Reply text: -1.09

Inquiry: # get_value(readout='log10 Kd', item= R3-18-14C (dsDNA) DNA 1: GGAATAGGTGGAACAGCC DNA 2: GGCTGTTCCACCTATTCC )
Reply text: -1.48

Inquiry: # get_value(readout='log10 Kd', item= R3-18-3G (dsDNA) DNA 1: GGGATAGGTGGAAAAGCC DNA 2: GGCTTTTCCACCTATCCC )
Reply text: -0.92

Source listed as paper PMC3074162.
